test system: Pseudomonas aeruginosa; assay: Antibacterial activity against polymyxin-susceptible Pseudomonas aeruginosa FADD1-PA025 clinical isolates assessed as reduction in bacterial growth by broth microdilution method; format: functional
MIC reference
Hi! Could you send only the number? It should be in µg/mL, unit omitted.

Task: Sample `CC[C@H](C)CCCCC(=O)N[C@@H](CCN)C(=O)N[C@H](C(=O)N[C@@H](CCN)C(=O)N[C@H]1CCNC(=O)[C@H](CN)NC(=O)[C@H](CCN)NC(=O)[C@H](CCN)NC(=O)[C@H](CC(C)C)NC(=O)[C@@H](Cc2ccccc2)NC(=O)[C@H](CCN)NC1=O)[C@@H](C)O` — what was its MIC?
Result: 2

Task: Try `CC[C@H](C)CCCCC(=O)N[C@@H](CCN)C(=O)N[C@H](C(=O)N[C@@H](CCN)C(=O)N[C@H]1CCNC(=O)[C@H]([C@H](C)O)NC(=O)[C@H](CCN)NC(=O)[C@H](CCN)NC(=O)[C@H](CC(C)C)NC(=O)[C@@H](Cc2ccccc2)NC(=O)[C@H](CCN)NC1=O)[C@@H](C)O` next.
Result: 2

Task: Try `CC[C@H](C)CCCCC(=O)N[C@@H](CCN)C(=O)N[C@H](C(=O)N[C@@H](CCN)C(=O)N[C@H]1CCNC(=O)[C@H]([C@@H](C)O)NC(=O)[C@H](CCN)NC(=O)[C@H](CCN)NC(=O)[C@H](CC(C)C)NC(=O)[C@@H](Cc2ccccc2)NC(=O)[C@H](CCN)NC1=O)[C@@H](C)O` next.
Result: 4

Further cases:
Task: Sample `CC[C@H](C)CCCCC(=O)N[C@@H](CCN)C(=O)N[C@H](C(=O)N[C@@H](CCN)C(=O)N[C@H]1CCNC(=O)[C@@H]([C@H](C)O)NC(=O)[C@H](CCN)NC(=O)[C@H](CCN)NC(=O)[C@H](CC(C)C)NC(=O)[C@@H](Cc2ccccc2)NC(=O)[C@H](CCN)NC1=O)[C@@H](C)O` — what was its MIC?
Result: 16

Task: Try `CC[C@H](C)CCCCC(=O)N[C@@H](CCN)C(=O)N[C@H](C(=O)N[C@@H](CCN)C(=O)N[C@H]1CCNC(=O)[C@H](CCCNC(=N)N)NC(=O)[C@H](CCN)NC(=O)[C@H](CCN)NC(=O)[C@H](CC(C)C)NC(=O)[C@@H](Cc2ccccc2)NC(=O)[C@H](CCN)NC1=O)[C@@H](C)O` next.
Result: 8

Task: Try `CCC[C@@H]1NC(=O)[C@H](CCN)NC(=O)[C@H](CCN)NC(=O)[C@H](CC(C)C)NC(=O)[C@@H](Cc2ccccc2)NC(=O)[C@H](CCN)NC(=O)[C@@H](NC(=O)[C@H](CCN)NC(=O)[C@@H](NC(=O)[C@H](CCN)NC(=O)CCCC[C@@H](C)CC)[C@@H](C)O)CCNC1=O` next.
Result: 2

Task: Try `CC[C@H](C)CCCCC(=O)N[C@@H](CCN)C(=O)N[C@H](C(=O)N[C@@H](CCN)C(=O)N[C@H]1CCNC(=O)CNC(=O)[C@H](CCN)NC(=O)[C@H](CCN)NC(=O)[C@H](CC(C)C)NC(=O)[C@@H](Cc2ccccc2)NC(=O)[C@H](CCN)NC1=O)[C@@H](C)O` next.
Result: 2

Task: Try `CC[C@H](C)CCCCC(=O)N[C@@H](CCN)C(=O)N[C@H](C(=O)N[C@@H](CCN)C(=O)N[C@H]1CCNC(=O)[C@H](Cc2c[nH]c3ccccc23)NC(=O)[C@H](CCN)NC(=O)[C@H](CCN)NC(=O)[C@H](CC(C)C)NC(=O)[C@@H](Cc2ccccc2)NC(=O)[C@H](CCN)NC1=O)[C@@H](C)O` next.
Result: 2

* * *

system: Klebsiella pneumoniae; test: Antibacterial activity against Carbapenem-resistant Klebsiella pneumoniae FADD1-KP022 clinical isolates assessed as reduction in bacterial growth by broth microdilution method; type: functional
Observation Type: MIC (µg/mL)
Hi! Could you send only the number? It should be in µg/mL, unit omitted.

Task: Sample `CC[C@H](C)CCCCC(=O)N[C@@H](CCN)C(=O)N[C@H](C(=O)N[C@@H](CCN)C(=O)N[C@H]1CCNC(=O)[C@H](COC)NC(=O)[C@H](CCN)NC(=O)[C@H](CCN)NC(=O)[C@H](CC(C)C)NC(=O)[C@@H](Cc2ccccc2)NC(=O)[C@H](CCN)NC1=O)[C@@H](C)O` — what was its MIC?
Result: 0.25

* * *

test: Acute toxicity in Swiss mouse assessed as maximum tolerated dose administered intravenously measured over 24 hrs; conditions: in vivo, route iv
Bridge positions count the residues as written; N and C are the ends. Square brackets hold non-standard residues; d marks the D form. Peptide text beside a SMILES is read from it. * marks the point of attachment. X1 = CC[C@H](C)CCCCC(=O)*; Dab = NCC[C@H](N)C(=O)O
Observation Type: MTD at 24 h (mg/kg)
Hi! Could you send only the number? It should be in mg/kg, unit omitted.

Task: Sample `CC[C@H](C)CCCCC(=O)N[C@@H](CCN)C(=O)N[C@H](C(=O)N[C@@H](CCN)C(=O)N[C@H]1CCNC(=O)[C@H](CO)NC(=O)[C@H](CCN)NC(=O)[C@H](CCN)NC(=O)[C@H](CC(C)C)NC(=O)[C@@H](Cc2ccccc2)NC(=O)[C@H](CCN)NC1=O)[C@@H](C)O` — what was its MTD at 24 h?
Result: 4.1

Further cases:
Task: Sample `CC[C@H](C)CCCCC(=O)N[C@@H](CCN)C(=O)N[C@H](C(=O)N[C@@H](CCN)C(=O)N[C@H]1CCNC(=O)[C@H](C)NC(=O)[C@H](CCN)NC(=O)[C@H](CCN)NC(=O)[C@H](CC(C)C)NC(=O)[C@@H](Cc2ccccc2)NC(=O)[C@H](CCN)NC1=O)[C@@H](C)O` — what was its MTD at 24 h?
Result: 2.7

Task: Try `CC[C@H](C)CCCCC(=O)N[C@@H](CCN)C(=O)N[C@H](C(=O)N[C@@H](CCN)C(=O)N[C@H]1CCNC(=O)[C@H]([C@@H](C)O)NC(=O)[C@H](CCN)NC(=O)[C@H](CCN)NC(=O)[C@H](CC(C)C)NC(=O)[C@@H](Cc2ccccc2)NC(=O)[C@H](CCN)NC1=O)[C@@H](C)O` next.
Result: 4

Task: Try `CCC[C@@H]1NC(=O)[C@H](CCN)NC(=O)[C@H](CCN)NC(=O)[C@H](CC(C)C)NC(=O)[C@@H](Cc2ccccc2)NC(=O)[C@H](CCN)NC(=O)[C@@H](NC(=O)[C@H](CCN)NC(=O)[C@@H](NC(=O)[C@H](CCN)NC(=O)CCCC[C@@H](C)CC)[C@@H](C)O)CCNC1=O` next.
Result: 4.1

Task: Try `CC[C@H](C)CCCCC(=O)N[C@@H](CCN)C(=O)N[C@H](C(=O)N[C@@H](CCN)C(=O)N[C@H]1CCNC(=O)[C@H]([C@H](C)O)NC(=O)[C@H](CCN)NC(=O)[C@H](CCN)NC(=O)[C@H](CC(C)C)NC(=O)[C@@H](Cc2ccccc2)NC(=O)[C@H](CCN)NC1=O)[C@@H](C)O` next.
Result: 4.1

Task: Try CC[C@H](C)CCCCC(=O)N[C@@H](CCN)C(=O)N[C@H](C(=O)N[C@@H](CCN)C(=O)N[C@H]1CCNC(=O)[C@H](CC(C)C)NC(=O)[C@H](CCN)NC(=O)[C@H](CCN)NC(=O)[C@H](CC(C)C)NC(=O)[C@@H](Cc2ccccc2)NC(=O)[C@H](CCN)NC1=O)[C@@H](C)O (X1-[Dab]T[Dab][Dab][Dab][dF]L[Dab][Dab]L; lactam 4-C) next.
Result: 6.1

Task: Try `CC[C@H](C)CCCCC(=O)N[C@@H](CCN)C(=O)N[C@H](C(=O)N[C@@H](CCN)C(=O)N[C@H]1CCNC(=O)[C@H](CC)NC(=O)[C@H](CCN)NC(=O)[C@H](CCN)NC(=O)[C@H](CC(C)C)NC(=O)[C@@H](Cc2ccccc2)NC(=O)[C@H](CCN)NC1=O)[C@@H](C)O` next.
Result: 4.1

* * *

tested on: Pseudomonas aeruginosa; experiment: Antibacterial activity against polymyxin-susceptible Pseudomonas aeruginosa FADD1-PA038 clinical isolates assessed as reduction in bacterial growth by broth microdilution method; assay type: functional
Observation Type: MIC (µg/mL)
Hi! Could you send only the number? It should be in µg/mL, unit omitted.

Task: Sample `CC[C@H](C)CCCCC(=O)N[C@@H](CCN)C(=O)N[C@H](C(=O)N[C@@H](CCN)C(=O)N[C@H]1CCNC(=O)[C@H]([C@H](C)O)NC(=O)[C@H](CCN)NC(=O)[C@H](CCN)NC(=O)[C@H](CC(C)C)NC(=O)[C@@H](Cc2ccccc2)NC(=O)[C@H](CCN)NC1=O)[C@@H](C)O` — what was its MIC?
Result: 4
